# TARGET_OR_TEST_SYSTEM: T1, human CD3 protein (human, UniProt P07766 23-126; P04234 22-105)
# T1 construct: ELISA coating protein; also called Human CD3D & CD3E Heterodimer Protein
# T1 sequence (P07766 23-126 limits assumed, chain 1 of 2): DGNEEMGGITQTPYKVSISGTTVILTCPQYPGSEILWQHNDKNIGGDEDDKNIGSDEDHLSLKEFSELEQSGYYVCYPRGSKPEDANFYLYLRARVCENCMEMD
# T1 sequence (P04234 22-105 limits assumed, chain 2 of 2): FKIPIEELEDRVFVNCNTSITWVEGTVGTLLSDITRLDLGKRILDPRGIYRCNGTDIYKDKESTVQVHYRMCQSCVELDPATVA
# EXPERIMENT_DESCRIPTION: ELISA, plate-coated CD3;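 note: binding to plate-immobilized human CD3 protein, bound antibody detected with peroxidase-labelled anti-human IgG and TMB, read as absorbance at 450 nm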
MEASURED_PROPERTY: EC50 (ng/mL)

>>> reported("Hu192A7B9-20 (antibody, V domains shown, humanized mAb) VH: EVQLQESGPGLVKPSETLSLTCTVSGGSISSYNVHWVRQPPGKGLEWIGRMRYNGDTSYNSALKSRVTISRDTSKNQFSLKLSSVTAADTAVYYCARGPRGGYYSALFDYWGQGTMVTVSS VL: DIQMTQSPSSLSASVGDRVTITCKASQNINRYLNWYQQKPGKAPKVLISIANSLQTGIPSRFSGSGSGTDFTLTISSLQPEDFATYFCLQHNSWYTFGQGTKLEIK")
5.15
>>> reported("Hu192A7B9-24 (antibody, V domains shown, humanized mAb) VH: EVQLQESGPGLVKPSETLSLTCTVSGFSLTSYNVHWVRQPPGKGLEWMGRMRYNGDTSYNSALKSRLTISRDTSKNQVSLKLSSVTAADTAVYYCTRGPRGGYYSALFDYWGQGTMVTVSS VL: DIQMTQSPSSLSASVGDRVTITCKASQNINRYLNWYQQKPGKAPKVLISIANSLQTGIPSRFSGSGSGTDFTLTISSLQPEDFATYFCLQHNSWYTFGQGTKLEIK")
20.2
>>> reported("Hu155A9B1-10 (antibody, V domains shown, humanized mAb) VH: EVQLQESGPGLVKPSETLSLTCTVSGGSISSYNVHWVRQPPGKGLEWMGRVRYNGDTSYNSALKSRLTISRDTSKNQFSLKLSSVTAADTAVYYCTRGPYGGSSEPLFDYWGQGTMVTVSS VL: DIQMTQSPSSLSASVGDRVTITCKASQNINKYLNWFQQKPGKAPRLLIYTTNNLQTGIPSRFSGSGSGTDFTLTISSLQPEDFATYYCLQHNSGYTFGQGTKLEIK")
6.04
